tested.target: Polµ-ΔBRCT (Homo sapiens, UniProt Q9NP87 138-494)
Sequence (Q9NP87 138-494, stated change not applied): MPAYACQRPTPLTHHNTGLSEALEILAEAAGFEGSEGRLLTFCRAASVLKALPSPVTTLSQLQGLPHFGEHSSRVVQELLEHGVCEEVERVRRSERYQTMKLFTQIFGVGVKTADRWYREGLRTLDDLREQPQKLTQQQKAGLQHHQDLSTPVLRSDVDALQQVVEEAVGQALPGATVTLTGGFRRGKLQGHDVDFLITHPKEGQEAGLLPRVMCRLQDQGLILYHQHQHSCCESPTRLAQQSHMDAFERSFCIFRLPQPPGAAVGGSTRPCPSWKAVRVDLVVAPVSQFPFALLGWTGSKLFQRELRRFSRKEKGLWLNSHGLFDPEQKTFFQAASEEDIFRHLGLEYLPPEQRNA
protocol.text: EMSA; 5'-P assignment inferred: binding undetectable without it; EMSA: 50 mM Tris-HCl pH 7.5, 0.1 mg/ml BSA, 1 mM DTT, 4% glycerol, 5 nM DNA, 10 min at 30°C; footprinting: same buffer, 30 nM DNA, 37°C (2.5 mM MgCl2 and 100 µM dNTP where stated)
condition.details: protein: recombinant; tags: pRSETA construct; label: 32P; 3' overhang 2 nt (text says 3 nt), other end blunt
recorded.metric: Kd (µM)
Numbers only; they are read as µM.

Quick one: Kd of 3'-protruding end GT/NHEJ-D, 5'-P (dsDNA, 5'-phosphate on NHEJ-D (S15)) DNA 1: CCCTCCCTCCCGT DNA 2: GGGAGGGAGGG ?
2
